Test: Quantitative highthroughput screen to assess conditional lethalithy of NOMO1 cells grown in Human Plasma-Like Medium with dialyzed fetal bovine serum (HPLM+ds) (AID 1963878); further: nearly all actives have a fitted effect of over 35% in size; further: potency means the concentration at half of the fitted maximal effect
Details: NOMO1 AML cells in HPLM+ds, CellTiter-Glo viability, 48 h; series mostly up to 45.8 µM
Results filed as inconclusive are left out. Calls of active or inactive are those of the source. The call rests on the fitted dose curve; in most records, active means well fitted cell-killing curve with a large enough effect; inconclusive means small, poorly fitted or top-dose-only effect, or effect the other way; inactive means no such curve, though single readings can be large or run the other way.
MEASURED_ATTRIBUTE: Potency

Reference set (8 entries):
1) O=C1NC(=O)C(=Cc2ccc3nccnc3c2)S1
inactive
2) CNC(=O)c1c(F)cccc1Nc1nc(Nc2cc3c(cc2OC)CCN3C(=O)CN(C)C)nc2[nH]ccc12
16.6 µM (active)
3) Nc1nccc(-c2ccc3noc(-c4ccc(Cl)cc4)c3c2)n1
inactive
4) NC(=O)c1ncn([C@@H]2O[C@H](CO)[C@@H](O)[C@@H]2O)c1N
inactive
5) Cc1cnc(CNC(=O)c2c(=O)c3ccc(N4CCCN(C)CC4)nc3n3c2sc2ccccc23)cn1
inactive
6) CC[C@H]1CN2CCc3cc(OC)c(OC)cc3[C@H]2C[C@@H]1C[C@@H]1NCCc2cc(OC)c(OC)cc21
0.526 µM (active)
7) Cc1cc2cc3c(C)cc(=O)oc3c(C)c2o1
inactive
8) Clc1ccc2c(c1)C(N1CCNCC1)=Nc1ccccc1O2
inactive

Potency measured on `COc1ccc2cccc(CCNC(C)=O)c2c1` = inactive

Potency measured on `C=CC1=C(C(=O)O)N2C(=O)[C@@H](NC(=O)C(=NO)c3csc(N)n3)[C@H]2SC1` = inactive
